src = patent US8008299B2

Target: UniProt:P49684
Sequence (P49684 1-386): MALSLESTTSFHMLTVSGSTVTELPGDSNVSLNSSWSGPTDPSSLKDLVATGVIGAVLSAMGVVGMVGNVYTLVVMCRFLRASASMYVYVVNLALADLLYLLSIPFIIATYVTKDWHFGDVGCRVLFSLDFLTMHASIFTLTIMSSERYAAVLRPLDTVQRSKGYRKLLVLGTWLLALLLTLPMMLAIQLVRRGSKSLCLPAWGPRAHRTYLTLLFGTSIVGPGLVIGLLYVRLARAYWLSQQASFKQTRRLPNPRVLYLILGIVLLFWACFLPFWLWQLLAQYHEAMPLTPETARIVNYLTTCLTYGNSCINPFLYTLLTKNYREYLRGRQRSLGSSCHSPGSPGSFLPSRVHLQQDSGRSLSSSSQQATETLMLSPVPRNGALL
Assay: Rat UII Calcium Mobilization FLIPR Assay
Details: CHO cells transfected with rat GPR14; antagonist activity after 5 min incubation vs agonist (Ac)-CFWK(2-NaI)C-NH2 at 1 nM
Recorded Metric: IC50 (nM)

Please review the entries below; each comes with its answer.
compound="COc1ccc([C@@H](CCCOc2ccccc2)N2Cc3c(cccc3N3CCN(C4CC4)CC3)C2=O)cc1OC [Cpd 28]" recorded_metric=IC50 value_reported=25
compound="CCN1CCN(c2cccc3c2CN([C@H](CCCSc2nc(C)cc(C)n2)c2ccc(OC)c(OC)c2)C3=O)CC1 [Cpd 27]" recorded_metric=IC50 value_reported=3
compound="CCN1CCN(c2cccc3c2CN([C@H](CCCN(C)Cc2cccc(F)c2)c2ccc(OC)c(OC)c2)C3=O)CC1 [Cpd 98]" recorded_metric=IC50 value_reported=4

I. CCN1CCN(c2cccc3c2CN([C@H](CCCNc2nc(OC)cc(OC)n2)c2ccc(OC)c(OC)c2)C3=O)CC1 [Cpd 10]
II. CCN1CCN(c2cccc3c2CN([C@H](CCCNC(=O)C(F)(F)F)c2ccc(OC)c(OC)c2)C3=O)CC1 [Cpd 67]
III. CCN1CCN(c2cccc3c2CN([C@H](CCCNC(=O)c2nccn2C)c2ccc(OC)c(OC)c2)C3=O)CC1 [Cpd 56]
# desc sort on IC50 across 3 compounds Order the labels as requested and list them.
III, II, I
